Reported IC50 values for the following molecules.
Target: Human DP1 receptor (Homo sapiens (Human), UniProt Q13258)
Sequence (Q13258 whole entry): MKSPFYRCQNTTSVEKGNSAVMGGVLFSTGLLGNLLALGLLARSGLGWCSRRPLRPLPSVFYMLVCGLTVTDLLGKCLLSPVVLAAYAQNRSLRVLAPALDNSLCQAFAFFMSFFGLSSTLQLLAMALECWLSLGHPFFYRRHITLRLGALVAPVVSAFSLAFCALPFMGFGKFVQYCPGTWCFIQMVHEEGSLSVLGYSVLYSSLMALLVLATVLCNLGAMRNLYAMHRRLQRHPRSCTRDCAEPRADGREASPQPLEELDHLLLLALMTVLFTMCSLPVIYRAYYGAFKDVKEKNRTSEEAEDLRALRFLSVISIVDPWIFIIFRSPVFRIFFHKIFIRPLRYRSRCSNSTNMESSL
Experiment: Human DP1 inhibitory activity in DP1-expressing cell (PGD2-induced cAMP)
Type: cell-based
Settings: category of cAMP IC50, human DP1 receptor expressing Jurkut cell

Example cases with answers are listed next.
| MOLECULE | IC50 |
| --- | --- |
| CCOc1ccc(S(=O)(=O)N2C[C@H](n3nc(CC(=O)O)c4ccccc43)[C@@H](C)[C@@H]2C#N)cc1 | < 100 nM |
| CC(C)Oc1ccc(S(=O)(=O)N2C[C@@H](C)[C@@H](n3nc(CC(=O)O)c4cc(C#N)c(F)cc43)C2)cc1 | < 100 nM |

// IC50 lookup, key: Cc1ccc2c(CC(=O)O)nn([C@H]3CN(S(=O)(=O)C4CC4C(C)C)C[C@H]3C)c2c1 (stereo partly shown)
100 to 5000 nM

I'd like to know its IC50. The molecule in question is `COc1ccc(S(=O)(=O)N2C[C@@H](C)[C@@H](n3nc(CC(=O)O)c4ccccc43)C2)s1`
100 to 5000 nM

Fill blank: measured IC50 of the molecule `CCCCOc1ccc(S(=O)(=O)N2C[C@@H](C)[C@@H](n3nc(CC(=O)O)c4ccccc43)C2)cc1` is ____.
< 100 nM

Name the recorded IC50 for `CC(C)Oc1ccc(S(=O)(=O)N2C[C@H](C)[C@@H](n3nc(CC(=O)O)c4ccccc43)C2)cc1` .
< 100 nM

Fill in: IC50 of `CCCOC[C@H]1C[C@@H](n2nc(CC(=O)O)c3ccc(F)cc32)CN1S(=O)(=O)c1ccc(OC(C)C)cc1` is ___
100 to 5000 nM

###

Measured Ki, listed per entry.
Target: UniProt:Q9Y5Y4
Sequence (Q9Y5Y4 whole entry): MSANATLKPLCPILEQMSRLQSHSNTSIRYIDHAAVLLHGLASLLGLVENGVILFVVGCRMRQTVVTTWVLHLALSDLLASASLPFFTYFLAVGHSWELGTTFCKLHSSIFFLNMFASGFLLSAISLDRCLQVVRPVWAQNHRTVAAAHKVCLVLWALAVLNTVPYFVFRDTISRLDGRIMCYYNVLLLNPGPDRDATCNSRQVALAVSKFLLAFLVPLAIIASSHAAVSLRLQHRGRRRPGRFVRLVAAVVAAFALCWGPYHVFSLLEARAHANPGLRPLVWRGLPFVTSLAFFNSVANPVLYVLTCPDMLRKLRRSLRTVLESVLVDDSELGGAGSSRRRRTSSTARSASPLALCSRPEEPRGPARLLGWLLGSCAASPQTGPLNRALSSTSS
Assay: CRTH2 receptor binding inhibitory activity ([3H]-PGD2 displacement, membranes of CRTH2-expressing K562 cell)
Settings: CRTH2 receptor binding, [3H]-PGD2 displacement, membrane of CRTH2-expressing K562 cell; categorized AAAA/AAA; read-out: Ki

Use the examples below as a reference point.
| COMPOUND | SYSTEM TESTED | Ki |
| --- | --- | --- |
| CC(C)Oc1ccc(S(=O)(=O)N2C[C@H](n3nc(CC(=O)O)c4ccc(F)cc43)C[C@H]2CO)cc1 [Compound I-9] | UniProt:Q9Y5Y4 | < 100 nM |
| CC(C)Oc1ccc(S(=O)(=O)N2C[C@@H](C)[C@@H](n3nc(CC(=O)O)c4c(F)cccc43)C2)cc1 [Compound I-263] | UniProt:Q9Y5Y4 | < 100 nM |
| COc1ccc2c(CC(=O)O)nn([C@H]3CN(S(=O)(=O)c4ccc(OC(C)C)cc4)C[C@H]3C)c2c1 [Compound I-204] | UniProt:Q9Y5Y4 | < 100 nM |
| CCOc1ccc(S(=O)(=O)N2C[C@@H](C)[C@@H](n3nc(CC(=O)O)c4ccccc43)C2)c(COC)c1 [Compound I-184] | UniProt:Q9Y5Y4 | < 100 nM |

# context switch: different compound, same Ki
Query (compound): CCOc1ccc(S(=O)(=O)N2C[C@@H](C)[C@@H](n3nc(CC(=O)O)c4ccccc43)C2)c(/C=C/CO)c1 [Compound I-279] ; field requested: Ki
< 100 nM
